test system: penicillin susceptible and resistant pneumococcal strains (2 quinolone resistant); assay: Time-kill testing of 12 pneumococcal strains; assay type: cell-based, Streptococcus pneumoniae; conditions: 12 penicillin susceptible and resistant pneumococcal strains; 24 h; bactericidal = ≧3 log10 cfu/ml (99.9%) reduction
Readout kind: concentration at which bactericidal after 24 h (×MIC)
Respond numerically; units are ×MIC and should not be typed.

Completed entries (count: 5):
Compound	Numeric readout
CO/N=C(\C(=O)N[C@@H]1C(=O)N2C(C(=O)O)=C(COC(N)=O)CS[C@H]12)c1ccco1	4
N[C@@H]1[C@H]2CN(c3nc4c(cc3F)c(=O)c(C(=O)O)cn4-c3ccc(F)cc3F)C[C@@H]12	4
Cc1c(F)c(N2CCNC(C)C2)cc2c1c(=O)c(C(=O)O)cn2C1CC1 (stereo not drawn)	4
CC1(C)S[C@@H]2[C@H](NC(=O)[C@H](N)c3ccc(O)cc3)C(=O)N2[C@H]1C(=O)O	2
CO/N=C1\CN(c2nc3c(cc2F)c(=O)c(C(=O)O)cn3C2CC2)CC1CN (racemic)	2

Now for another entry.
[Q] Which measured concentration at which bactericidal after 24 h value corresponds to C[C@@H]1CN(c2c(F)c(N)c3c(=O)c(C(=O)O)cn(C4CC4)c3c2F)C[C@H](C)N1 ?
[A] 2

Hello, the source for this data is patent US20040044006A1, in case you need it.
